B1: Tyrosine-protein kinase Lck, residues 63 to 120; numbered along this chain, P06239 (parent)
chain: DNLVIALHSYEPSHDGDLGFEKGEQLRILEQSGEWWKAQSLTTGQEGFIPFNFVAKAN

Variants of: B1
Assay: abundance fitness (aPCA) (normalised: wild type 0, dead -1); higher = more abundant; growth selection in yeast, the domain comes from the species named
Settings: Homo sapiens
quantity measured: abundance fitness

> print(dat)
    variant.id  observed.measurement
 1        E34W                 -0.34
 2        S13N                -0.061
 3        F48T                -0.115
 4        G23H                -0.397
 5        A55E                 0.037
 6         S9Q                -0.276
 7         A6I                -0.772
 8        K22Q                -0.371
 9        V54F                  -0.6
10         A6Q                 -0.84
11        K37P                -0.808
12         S9P                -0.166
13         L7Y                 -0.54
14        E30L                -0.601
15        L41E                -0.153
16        T42E                -0.015
17        Q25H                -0.143
18        G19P                 -0.16
19        E30R                -0.285
20        L18R                 -0.86
21        K56D                -0.108
22        K56R                 -0.09

src = the Human Domainome abundance scans (Beltran et al. 2025)
